A compilation of published IC50 results with Protein O-GlcNAcase (Homo sapiens).

Record excerpt, results attached:
COc1ccc2c(c1)CCN(C(C)c1cnc3c(c1)OCC3)CC2 (racemic)    < 50 nM
c1cnc2ccc(CN3CCCC3c3ccc4c(c3)OCCO4)cc2c1 (racemic)    200 to 1000 nM

For the 4 compounds below, give their IC50 values.
1. CC(c1ccc2scnc2c1)N1CCCc2cc(C#N)ccc2C1 (racemic)
2. CC(c1ccc2scnc2c1)N1CCc2ccc(S(C)(=N)=O)cc2CC1 (single isomer, unassigned)
3. COc1ccc2c(c1)CCN(C(C)c1ccc3nsnc3c1)CC2 (stereo not shown)
4. CC(c1ccc2nccnc2c1)N1CCN(c2ncc(S(C)(=N)=O)cn2)CC1 (racemic)

["200 to 1000 nM", "1000 to 10000 nM", "< 50 nM", "50 to 200 nM"]

For the 2 compounds below, give their IC50 values.
1. CC(=O)Nc1nnc(N2CCN(C(C)c3ccc4c(c3)O[C@@H](C)C4)CC2)s1 (single isomer, unassigned)
2. CC(c1ccc2scnc2c1)N1CCN(c2ncc3c(n2)CCS(=N)(=O)C3)CC1 (racemic)

1. 200 to 1000 nM
2. < 50 nM

For the 7 compounds below, give their IC50 values.
1. CC(c1ccc2scnc2c1)N1CCC2(CC1)NC(=O)N(Cc1ccc(C#N)cc1)C2=O (racemic)
2. CCNC(=O)C[C@@H]1[C@@H](O)[C@H](O)[C@@H](CO)N1CCC(c1ccccc1)c1ccccc1
3. CC(c1ccc2scnc2c1)N1CCc2ccc(C#N)cc2CC1 (racemic)
4. CC(=O)Nc1nnc(N2CCN(C(C)c3ccc4c(c3)OC(C)(C)C4)CC2)s1 (racemic)
5. O=C1CSCCN1c1ccc(CN2CCCC2c2ccc3c(c2)OCCO3)cc1 (racemic)
6. CC1Cc2ccc(C(C)N3CCN(c4ncc(S(C)(=N)=O)cn4)CC3)cc2O1 (racemic)
7. c1cc(N2CCSCC2)ccc1CN1CCCC1c1ccc2c(c1)OCCO2 (racemic)

["50 to 200 nM", "3.7 nM", "< 50 nM", "1000 to 10000 nM", "200 to 1000 nM", "< 50 nM", "200 to 1000 nM"]

Identify the measured IC50 of CC(=O)Nc1nnc(N2CCN(C(C)c3ccc4c(c3)O[C@H](C)C4)CC2)s1 (stereo partly shown) for Protein O-GlcNAcase (Homo sapiens).
< 50 nM

----------
pIC50: −log10 of the molar value.
A compilation of published pIC50 results with Protein O-GlcNAcase (Homo sapiens).

Record excerpt, results attached:
c1ccc(-c2ccc(CN3CCCC3c3ccc4c(c3)OCCO4)cc2)nc1 (racemic)    6.00 to 6.70
CCNC(=O)C[C@@H]1[C@@H](O)[C@H](O)[C@@H](CO)N1CCCc1ccc(OC)cc1    7.96
CC(c1ccc2c(c1)OC(C)(C)C2)N1CCN(c2ncc3c(n2)CCNC3=O)CC1 (racemic)    5.00 to 6.00
CC(=O)Nc1ncc(CN2CCc3nc(N)sc3CC2)s1 (racemic)    6.70 to 7.30
CC(c1ccc2scnc2c1)N1CCCc2nn(C)cc2C1 (racemic)    6.00 to 6.70
CC(c1ccc2c(c1)OCC2)N1CCN(c2ccc(S(C)(=N)=O)cc2)CC1 (racemic)    > 7.30
Cc1ccc(N2C(=O)NC3(CCN(C(C)c4ccc5scnc5c4)CC3)C2=O)cn1 (racemic)    6.70 to 7.30
CC(c1ccc2scnc2c1)N1CCC2(CC1)NC(=O)N(c1cncnc1)C2=O (racemic)    6.70 to 7.30

For the 6 compounds below, give their pIC50 values.
1. CC(c1ccc2c(c1)OCC2)N1CCN(c2ncc(S(C)(=N)=O)cn2)CC1 (single isomer, unassigned)
2. CCNC(=O)C[C@H]1N[C@H](CO)[C@@H](O)[C@H]1O
3. CCCCNC(=O)C[C@@H]1[C@H](O)[C@H](O)[C@@H](CO)N1CCCCCCCCCO
4. Fc1cc(-c2ccccn2)ccc1CN1CCCC1c1ccc2c(c1)OCCO2 (racemic)
5. CC(c1ccc2scnc2c1)N1CCC2(CC1)NC(=O)N(c1cccc(S(C)(=O)=O)c1)C2=O (racemic)
6. CC1Cc2ccc(C(C)N3CCN(c4ncc5c(n4)CCNC5=O)CC3)cc2O1 (racemic)

["> 7.30", 5.90, 4.13, "6.00 to 6.70", "6.70 to 7.30", "> 7.30"]

For the 2 compounds below, give their pIC50 values.
1. CC(c1ccc2c(c1)OCC2)N1CCC2(CC1)CC(=O)N(Cc1ccc(S(C)(=O)=O)cc1)C2 (racemic)
2. CC(c1ccc2scnc2c1)N1CCc2ccc(Oc3cccc(F)n3)cc2CC1 (racemic)

1: 6.00 to 6.70; 2: > 7.30
